- System: SK-MEL-5 melanoma
- assay details: NCI tumour cell line growth inhibition, 48 h
metric name: TGI (µM)

>>> measured_value("C[C@@H]1CC[C@@]2(C)[C@H](C)/C(=C\\COC(=O)/C=C/c3ccc(O)c(O)c3)CC[C@@]12C")
17
>>> measured_value("CC(C)C1=CC2=C(C(=O)C1=O)C13CCCC(C)(C)C1CC2OC3=O (centres undefined)")
55.1
>>> measured_value("O=C1OCC2=C1C(c1cccc(Cl)c1)c1cc3c(cc1N2CCO)CCC3 (centres undefined)")
0.28
>>> measured_value("COc1cc(C(c2ccc3c(c2)OCO3)C2SCCCS2)cc(OC)c1OC (centres undefined)")
9.21
>>> measured_value("COc1ccc2nc3cc(Cl)ccc3c(NCCCCCC(=O)NC(COc3ccc4ccc5cccnc5c4n3)COc3ccc4ccc5cccnc5c4n3)c2c1")
30.4
>>> measured_value("COCCCNc1c2ccccc2nc2ccccc12")
4.51
>>> measured_value("CC(=O)O[C@@H]1CC[C@@]2(C)C(=O)C34C[C@@]5(C)C([C@@H](C)CCCC(C)C)CCC5(C)[C@](O)(O3)C(=O)[C@H]4C2C1(C)C (some centres undefined)")
28.4
>>> measured_value("CCOc1ccc2c(c1)C(=O)c1c-2n(CCCN=[N+]=[N-])c(=O)c2cc([N+](=O)[O-])ccc12")
4.84
>>> measured_value("COC(=O)c1cccc(NC(=O)c2ccc(NC3=C(Cl)C(=O)N(Cc4ccccc4)C3=O)cc2)c1")
34
>>> measured_value("CC[As](CC)SCC1OC(OC(C)=O)C(OC(C)=O)C(OC(C)=O)C1OC(C)=O (centres undefined)")
28.4
>>> measured_value("O=C(/C=C/C=C/c1ccc2c(c1)OCO2)N/N=C\\c1ccc(O)cc1O")
3.87

====

- System: SNB-19 CNS
- assay details: NCI tumour cell line growth inhibition, 48 h
metric name: TGI

>>> measured_value("OC(Cc1cc(CC(O)(C(F)(F)F)C(F)(F)F)nc(CC(O)(C(F)(F)F)C(F)(F)F)c1)(C(F)(F)F)C(F)(F)F")
"8.79 µM"
>>> measured_value("Cn1c(=S)[nH]c(N)c(Cc2ccccc2)c1=O")
"> 100 µM"
>>> measured_value("CCn1ncc(N=O)c1N")
"> 100 µM"
>>> measured_value("COC(=O)C1=CC(=O)[C@@H]2CCCC[C@H]12")
"> 100 µM"
>>> measured_value("CSC1=Nc2ccccc2N=C(c2ccccc2)C1")
"> 100 µM"
>>> measured_value("O=C(O)c1ccc(Nc2cnc3cc(C(F)(F)F)ccc3n2)cc1")
"> 100 µM"
>>> measured_value("NC(=O)c1csc(-c2ccc(CO)o2)n1")
"> 100 µM"
>>> measured_value("C=CCOCn1cnc2c(=O)[nH]c(N)nc21")
"> 100 µM"
>>> measured_value("O=C1CN(c2ccccc2)C(=O)CN1NCNN1CC(=O)N(c2ccccc2)CC1=O")
"> 100 µM"
>>> measured_value("NC(CSCSCC(N)C(=O)O)C(=O)O (configuration not stated)")
"> 225 µM"
>>> measured_value("CC(C)C(/C=C/c1ccc(Cl)cc1)=N\\NC(=O)N/N=C(/C=C/c1ccc(Cl)cc1)C(C)C")
"38.8 µM"
>>> measured_value("Fc1ccc(N=C2C=CC(=Nc3ccc(F)cc3)c3ccccc32)cc1")
"> 100 µM"
>>> measured_value("Nc1n[nH]c2ccc([C@@H]3Nc4ccc5cn[nH]c5c4[C@H]4C5CCC(C5)[C@@H]34)cc12 (some centres not stated)")
"> 100 µM"
>>> measured_value("CC(C)=CCc1cc(/C=C/C(=O)O)cc(CC=C(C)C)c1O")
"> 100 µM"
>>> measured_value("COc1cc2c(cc1[N+](=O)[O-])C(=O)C(Br)(Br)CCC2")
"19.5 µM"
>>> measured_value("O=C(CN1CCN(C(=O)c2ccco2)CC1)Nc1ccc(Cl)cc1C(=O)c1ccccc1Cl")
"94.7 µM"
>>> measured_value("CCN(CC)CC(O)c1cc(-c2ccc(Cl)cc2)nc2c(C)c(Cl)ccc12 (configuration not stated)")
"3.44 µM"
>>> measured_value("CN(C)NC1=NS(=O)(=O)c2cc3c(=O)n(C)[nH]c3cc2S1")
"> 10 µM"
>>> measured_value("Cn1c(=O)c(Oc2ccc(F)cc2F)cc2cnc(NCC(C)(C)O)nc21")
"> 25 µM"
>>> measured_value("C/C(CCN(C)C)=N\\OC(=O)c1ccccc1")
"> 100 µM"
>>> measured_value("Nc1ccc(C2SCC(=O)N2NS(=O)(=O)c2cccc(C(=O)O)c2)cc1 (configuration not stated)")
"> 100 µM"
>>> measured_value("C=C(C)CCC(O)[C@](C)(O)[C@H]1[C@H](O)C[C@@]2(C)[C@@H]3CCc4c(cc(OC5OC(CO)C(O)C(O)C5O)c(O)c4C)C3(C)C(=O)C[C@]12C (some centres not stated)")
"> 100 µM"
